assayed target: T1, human LTBR on cells (human, UniProt P36941 31-435)
T1 construct: also called recombinant human LTBR CHO cells; CHO-K1 cells overexpressing human LTBR
procedure text: FACS CHO-huLTBR, 0.0003 µg/ml
// returns n unless MFI is strictly below 1000 MFI, in which case y

q: Decide: MFI of P1AE9457 (antibody, human IgG1, kappa, L234A L235A, V domains shown, human IgG1 PG LALA; from transgenic rabbit immunization; also called LTBR (9457)) VH: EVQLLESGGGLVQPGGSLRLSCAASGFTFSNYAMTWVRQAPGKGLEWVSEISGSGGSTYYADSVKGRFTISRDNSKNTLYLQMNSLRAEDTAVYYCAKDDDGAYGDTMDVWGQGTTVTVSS VL: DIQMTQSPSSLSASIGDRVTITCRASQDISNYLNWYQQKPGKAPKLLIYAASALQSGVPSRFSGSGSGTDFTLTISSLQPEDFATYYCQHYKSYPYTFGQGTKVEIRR strictly below 1000 MFI?
a: n

q: Regarding P1AE9459 (antibody, human IgG1, kappa, L234A L235A, V domains shown, human IgG1 PG LALA; from transgenic rabbit immunization) VH: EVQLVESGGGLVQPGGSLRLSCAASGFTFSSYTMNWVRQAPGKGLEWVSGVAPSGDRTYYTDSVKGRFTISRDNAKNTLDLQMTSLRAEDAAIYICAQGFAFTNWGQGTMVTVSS VL: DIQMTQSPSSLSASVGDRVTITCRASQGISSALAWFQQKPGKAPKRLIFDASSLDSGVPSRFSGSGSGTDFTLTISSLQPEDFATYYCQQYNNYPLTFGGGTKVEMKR , kindly confirm whether its MFI is beneath 1000 MFI.
a: n

q: Does the reported MFI of the following binder sit strictly below 1000 MFI? P1AE1873 (CBE11) (antibody, human IgG1, kappa, L234A L235A, V domains shown) VH: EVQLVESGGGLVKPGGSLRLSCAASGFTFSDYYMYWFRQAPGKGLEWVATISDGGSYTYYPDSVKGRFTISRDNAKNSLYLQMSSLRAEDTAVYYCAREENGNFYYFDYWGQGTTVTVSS VL: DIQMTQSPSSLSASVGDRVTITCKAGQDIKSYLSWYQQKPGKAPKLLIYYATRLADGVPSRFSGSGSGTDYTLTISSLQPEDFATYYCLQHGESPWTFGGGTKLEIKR
a: n

q: Say whether its MFI is strictly beneath 1000 MFI. Entry: P1AF0079 (antibody, human IgG1, kappa, L234A L235A, V domains shown, human IgG1 PG LALA; from transgenic rabbit immunization; also called LTBR (0079)) VH: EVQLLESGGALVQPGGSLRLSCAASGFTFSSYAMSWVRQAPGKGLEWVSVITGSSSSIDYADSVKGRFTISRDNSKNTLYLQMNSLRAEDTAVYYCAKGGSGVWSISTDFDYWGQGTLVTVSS VL: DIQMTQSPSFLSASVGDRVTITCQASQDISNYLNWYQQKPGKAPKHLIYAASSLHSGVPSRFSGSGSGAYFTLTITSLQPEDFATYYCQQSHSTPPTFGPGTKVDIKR
a: y

q: Determine if P1AF0080 (antibody, human IgG1, kappa, L234A L235A, V domains shown, human IgG1 PG LALA; from transgenic rabbit immunization; also called LTBR (0080)) VH: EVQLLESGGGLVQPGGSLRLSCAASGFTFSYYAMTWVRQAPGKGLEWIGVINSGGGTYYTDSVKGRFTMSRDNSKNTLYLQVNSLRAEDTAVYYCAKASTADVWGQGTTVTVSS VL: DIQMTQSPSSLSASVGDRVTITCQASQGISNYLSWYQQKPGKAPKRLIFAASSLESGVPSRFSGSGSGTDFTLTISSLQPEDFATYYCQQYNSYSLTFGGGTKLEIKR shows MFI strictly lower than 1000 MFI.
a: n
